# testTarget: T1, Soluble IGF-1R (sIGF-1R), R&D Systems Cat. # 391-GR/CF (UniProt P08069 31-935, limits assumed)
# T1 construct: extracellular domain
# assay: phage ELISA
Definition: the class of an entry is the range in low: < 5; moderate: ≥ 5 and < 10; high: ≥ 10 that contains its IGF-1R/IR comparison.

{"binder": "VGRASGFPENFYDWFGRQLSLQSGEQ [H2CA-4-H6-IGFR]", "label": "high"}
{"binder": "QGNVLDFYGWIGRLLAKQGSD [20E2B-3-D12-IGFR]", "label": "moderate"}
{"binder": "GFREGNFYEWFQAQVT [E4Dα-4-H2-IR]", "label": "low"}
{"binder": "QAVQPGFHEEFYDWFVRQVSTGVGGG [H2CA-4-H4-IGFR]", "label": "low"}
{"binder": "YRGMLVLGRISGGAGKAASERPARIGQKVSAVNFYDWFV [A6L-0-H3-IR]", "label": "high"}
{"binder": "LSSDGQFYRALNLLLQGSAGR [20E2B-2-B7-IGFR]", "label": "moderate"}
{"binder": "SGAKVIVVTGDSGDPFYHKLSELLQGS [B6Hα-2-C10-IR]", "label": "moderate"}
{"binder": "YSCGDGFYSLLSDLLGGQFRC [20E2B-4-H12-IGFR]", "label": "high"}
{"binder": "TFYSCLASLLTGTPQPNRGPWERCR [20C-3-G3-IGFR]", "label": "high"}
{"binder": "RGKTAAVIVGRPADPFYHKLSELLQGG [B6Hα-3-E8-IR]", "label": "low"}
{"binder": "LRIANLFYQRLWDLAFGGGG [20E2B-3-E8-IGFR]", "label": "high"}
{"binder": "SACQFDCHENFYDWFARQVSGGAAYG [H2CA-4-H8-IGFR]", "label": "moderate"}
{"binder": "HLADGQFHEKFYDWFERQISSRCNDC [H2CA-3-E11-IGFR]", "label": "low"}
{"binder": "PDLHKGFYAQLAQLIRGQLLS [20E2B-3-E3-IGFR]", "label": "high"}
{"binder": "VEGRGLFYDLLRQLLARRQNG [20E2B-3-C6-IGFR]", "label": "high"}
{"binder": "RGMKEEVLVGGSTDPFYHKLSELLQGS [B6Hα-3-F11-IR]", "label": "high"}
{"binder": "RCGRELYHSTFYDWFDRQVAGRTCPS [H2CA-1-A7-IGFR]", "label": "low"}
